Test system: RS4-11
test_protocol: Antiproliferative activity against human RS4:11 cells after 72 hrs by MTS assay
Assay type: functional, cell-based
measurement_conditions: RS4-11, 72 h
For each of the compounds below, state its IC50.

Would you kindly share the measured IC50 for C[C@@H]1CC[C@H]2[C@@H](C)C(OCCN3CCN(c4ccc(C(=O)NS(=O)(=O)c5ccc(NCC6CCOCC6)c([N+](=O)[O-])c5)c(Oc5cnc6[nH]ccc6c5)c4)C[C@@H]3CO)O[C@@H]3O[C@@]4(C)CC[C@@H]1[C@]32OO4 (some centres undefined) ?
> 1000 nM

Would you kindly share the measured IC50 for C[C@@H]1CC[C@H]2[C@@H](C)C(OCCNC3CCN(c4ccc(C(=O)NS(=O)(=O)c5ccc(NCC6CCOCC6)c([N+](=O)[O-])c5)c(Oc5cnc6[nH]ccc6c5)c4)CC3)O[C@@H]3O[C@@]4(C)CC[C@@H]1[C@]32OO4 (some centres undefined) ?
> 1000 nM

Would you kindly share the measured IC50 for C[C@@H]1CC[C@H]2[C@@H](C)C(OCCN3CCN(c4ccc(C(=O)NS(=O)(=O)c5ccc(NCC6CCOCC6)c([N+](=O)[O-])c5)c(Oc5cnc6[nH]ccc6c5)c4)C[C@H]3CO)O[C@@H]3O[C@@]4(C)CC[C@@H]1[C@]32OO4 (some centres undefined) ?
> 1000 nM

Would you kindly share the measured IC50 for `C[C@@H]1CC[C@H]2C(CN3CCN(c4ccc(C(=O)NS(=O)(=O)c5ccc(NCC6CCOCC6)c([N+](=O)[O-])c5)c(Oc5cnc6[nH]ccc6c5)c4)CC3)=C(C(F)(F)F)O[C@@H]3O[C@@]4(C)CC[C@@H]1[C@]32OO4` ?
> 1000 nM

All values here come from ChEMBL document CHEMBL4261603.
